# viability, T/C per record follows
system: 945468-187-T-J3-PDC spheroids with HUVEC/MSC, viability; assay: Anticancer human tumor 945468-187-T-J3-PDC patient-derived rectal carcinoma cell line growth inhibition [PI3K]; settings: second compound 0.0316 µM; first compound 1 µM; stronger effect = lower value;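 note: spheroids exposed to agents for 7 days before viability read; 100% = DMSO vehicle control viability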

| compound | viability, T/C [%] |
| --- | --- |
| Cn1ncc(Cl)c1-c1cc(C(=O)NC(CN)Cc2cccc(F)c2)sc1Cl (stereo not given) + Cc1nc(NC(=O)N2CCCC2C(N)=O)sc1-c1ccnc(C(C)(C)C(F)(F)F)c1 | 83 |
| CC1(C)CCC(CN2CCN(c3ccc(C(=O)NS(=O)(=O)c4ccc(NCC5CCOCC5)c([N+](=O)[O-])c4)c(Oc4cnc5[nH]ccc5c4)c3)CC2)=C(c2ccc(Cl)cc2)C1 + CC(Nc1ncnc2nc[nH]c12)c1cc2cccc(Cl)c2c(=O)n1-c1ccccc1 | 96 |
| C=CC(=O)N1CCN(c2nc(=O)n(-c3c(C)ccnc3C(C)C)c3nc(-c4c(O)cccc4F)c(F)cc23)C(C)C1 (stereo not given) + CC(Nc1ncnc2nc[nH]c12)c1cc2cccc(Cl)c2c(=O)n1-c1ccccc1 | 96.4 |
| C#Cc1c(F)ccc2cc(O)cc(-c3ncc4c(N5CC6CCC(C5)N6)nc(OCC56CCCN5CC(F)C6)nc4c3F)c12 (stereo not given) + Cc1nc(NC(=O)N2CCCC2C(N)=O)sc1-c1ccnc(C(C)(C)C(F)(F)F)c1 | 107 |
| CC(Cn1ccc(-c2ccc(C#N)c(Cl)c2)n1)NC(=O)c1cc(C(C)O)[nH]n1 (stereo not given) + Cc1nc(NC(=O)N2CCCC2C(N)=O)sc1-c1ccnc(C(C)(C)C(F)(F)F)c1 | 93.4 |
| CNC(=O)c1ccc(N2C(=S)N(c3ccc(C#N)c(C(F)(F)F)c3)C(=O)C2(C)C)cc1F + CC(Nc1ncnc2nc[nH]c12)c1cc2cccc(Cl)c2c(=O)n1-c1ccccc1 | 102 |
| CC1(C)CCC(CN2CCN(c3ccc(C(=O)NS(=O)(=O)c4ccc(NCC5CCOCC5)c([N+](=O)[O-])c4)c(Oc4cnc5[nH]ccc5c4)c3)CC2)=C(c2ccc(Cl)cc2)C1 + CC(Nc1ccc2c(c1)OCCn1cc(N3C(=O)OCC3C(F)F)nc1-2)C(N)=O | 121 |
| C[C@@H](NC(=O)c1ncnc(N)c1Cl)c1ncc(C(=O)Nc2cc(C(F)(F)F)c(Cl)cn2)s1 + COc1c(OCCCN2CCOCC2)ccc2c3n(c(=NC(=O)c4cnc(N)nc4)nc12)CCN3 | 95 |
| C[C@@H](NC(=O)c1ncnc(N)c1Cl)c1ncc(C(=O)Nc2cc(C(F)(F)F)c(Cl)cn2)s1 + CC(Nc1ccc2c(c1)OCCn1cc(N3C(=O)OCC3C(F)F)nc1-2)C(N)=O | 95.1 |
| CNC(=O)c1ccc(N2C(=S)N(c3ccc(C#N)c(C(F)(F)F)c3)C(=O)C2(C)C)cc1F + CC(Nc1ccc2c(c1)OCCn1cc(N3C(=O)OCC3C(F)F)nc1-2)C(N)=O | 126 |
